Ref: patent US20230203060A1

system: KRAS G12C mutant NCI-H358 cells; test: Cell proliferation inhibition experiment, 3D spheroid, CellTiter-Glo, NCI-H358; assay type: cell-based, human; settings: Homo sapiens, NCI-H358, 120 h, NCI-H358 (KRAS G12C mutant) 3D spheroid, 5 days with compound, CellTiter-Glo; read-out: H358 IC50
result type: IC50 (nM)

INSERT INTO measurements (compound, reported_measurement) VALUES
  ('C=CC(=O)N1CCN2C(=O)c3c(N4CCN(CCO)C[C@@H]4C)nc(-c4c(O)cccc4F)c(Cl)c3OC[C@H]2C1', 10.2);

1. C=CC(=O)N1CCN2C(=O)c3c(N(C)c4c(C)ccnc4C(C)C)nc(-c4c(O)cccc4F)c(Cl)c3OC[C@H]2C1
2. C=CC(=O)N1CCN2C(=O)c3c(N4C[C@@H](N5CCN(C)CC5)C[C@@H]4C)nc(-c4ccccc4F)c(Cl)c3OC[C@H]2C1
Incoming: Decide: 1 or 2 , by lowest recorded IC50. Reply briefly: the label of your chosen item.
Outgoing: 2

P. C=CC(=O)N1CCN2C(=O)c3c(N4C[C@H](C)O[C@@H](C)C4)nc(-c4c(O)cccc4F)c(Cl)c3OC[C@H]2C1
Q. C=CC(=O)N1CCN2C(=O)c3c(N4C[C@H](N(C)CCOC)CC4(C)C)nc(-c4ccccc4F)c(Cl)c3OC[C@H]2C1 (single isomer, unassigned)
R. C=CC(=O)N1CCN2C(=O)c3c(Nc4c(C)ccnc4C(C)C)nc(-c4ccccc4F)c(Cl)c3OC[C@H]2C1
S. C=CC(=O)N1CCN2C(=O)c3c(N4CCN(C)C(C)(C)C4)nc(-c4c(O)cccc4F)c(Cl)c3OC[C@H]2C1
T. C=CC(=O)N1CCN2C(=O)c3c(N4CC5CN(C)CC5C4)nc(-c4c(O)cccc4F)c(Cl)c3OC[C@H]2C1 (stereo partly shown)
Incoming: Rank descending by IC50. # respond with the labels, arranged in the requested order
Outgoing: P, T, R, S, Q
(P: 234 nM, T: 125 nM, R: 51 nM, S: 6.6 nM, Q: 4 nM)

I. C=CC(=O)N1CCN2C(=O)c3c(N4CCN(C)C[C@@H]4C)nc(-c4c(O)cccc4Cl)c(Cl)c3OC[C@H]2C1
II. C=CC(=O)N1CCN2C(=O)c3c(N4CCC(O)C4(C)C)nc(-c4c(O)cccc4F)c(Cl)c3OC[C@H]2C1 (stereo partly shown)
Incoming: Decide: I or II , by lowest recorded IC50. Reply briefly: the label of your chosen item.
Outgoing: II

###

Test system: KRAS G12C mutant NCI-H358 cells
Experiment: Cell proliferation inhibition experiment, 3D spheroid, CellTiter-Glo, NCI-H358
Format: cell-based, human
Details: Homo sapiens, NCI-H358, 120 h, NCI-H358 (KRAS G12C mutant) 3D spheroid, 5 days with compound, CellTiter-Glo; read-out: H358 IC50
Method: […] NCI-H358 is a KRAS G12C mutant human non-small cell lung cancer cell line, cultured in 10% FBS RPMI-1640+1% PS culture medium; and A549 is a KRAS G12S mutant human lung adenocarcinoma cell line, cultured in 10% FBS F-12K+1% PS culture medium. Cells at logarithmic growth stage were taken, digested with trypsin-EDTA, then collected and counted. […] The cell proliferation inhibition rate IR (%)=(RLU control -RLU compound)/(RLU control -RLU blank) x100% was calculated. […]
pIC50: −log10 of the molar value.
result type: pIC50

A. C=CC(=O)N1CCN2C(=O)c3c(N4CCC(OC)C4(C)C)nc(-c4c(O)cccc4F)c(Cl)c3OC[C@H]2C1 (stereo partly drawn) [Z241a]
B. C=CC(=O)N1CCN2C(=O)c3c(N4C[C@@H](NC)CC4(C)C)nc(-c4ccccc4F)c(Cl)c3OC[C@H]2C1 (single isomer, unassigned)
C. C=CC(=O)N1CCN2C(=O)c3c(N4CCN5C(=O)CC[C@H]5C4)nc(-c4c(O)cccc4F)c(Cl)c3OC[C@H]2C1 (single isomer, unassigned) [Z317a-1]
Incoming: Order required: smallest reported pIC50 first, largest last, for all compounds above. # respond with the labels, arranged in the requested order
Outgoing: C, B, A
(C: 6.84, B: 8.22, A: 8.96)
